Target: T1, 4H3073-AA
T1 chain: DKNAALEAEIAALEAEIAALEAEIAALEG
Assay: two-hybrid library CCmax;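 note: natural log of median RNA to DNA barcode read ratio; higher means stronger binding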
PROPERTY: interaction score
Number only, no unit.

[
  {
    "BINDER": "DKIAALKAKIAALKAKNAALEAENAALEG [4H2931-AA]",
    "PROPERTY": "interaction score",
    "ENDPOINT_RESULT": 0.803
  }
]

Q. Fill blank: measured interaction score of the binder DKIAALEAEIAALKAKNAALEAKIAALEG [4H2165-AA] is ____.
A. -1.45

Q. If you can, please state the reported interaction score value of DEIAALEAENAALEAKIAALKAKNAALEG [4H175-AA] .
A. -2.69

Q. Using the record for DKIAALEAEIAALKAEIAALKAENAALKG [4H2124-AA] , report its interaction score.
A. 1.36

Q. Field request: interaction score | item: DKNAALEAEIAALEAEIAALEAEIAALEG [4H3073-AA]
A. -0.701
